Numbers sourced from patent US11712438B2.

So I've got IC50 readings for EP4 (Homo sapiens, UniProt P35408), take a look.
The reply should consist of the numeric value with the unit placed after it.

Field: example entries. Status: answers known.
O=c1[nH]c(-c2cccc(-c3cc(NCCc4ccc(Br)cc4)ncn3)c2)no1 : 834 nM
CCOc1cc(-c2cc(NCCc3c(F)cc(Br)cc3F)ncn2)sc1-n1nn[nH]c1=O : 22 nM
COc1cc(C(F)F)c(F)cc1CCNc1cc(-c2ccc(C(=O)O)c(SC)c2)ncn1 : 200 nM
COc1cc(-c2cc(NCCc3c(F)cc(Br)cc3F)ncn2)sc1C(=O)O : 6 nM
CCOc1cc(-c2cc(NCCc3cc(C)c(C)cc3OC)ncn2)sc1C(=O)O : 6 nM

Kindly note: EP4 (Homo sapiens, UniProt P35408), CCc1cc(-c2cc(NCCc3c(F)cc(Br)cc3F)ncn2)ccc1C(=O)OC , IC50 value reported: 6720 nM

Given the compound O=C(O)c1ccc2cc(-c3cc(NCCc4c(F)cc(Br)cc4F)ncn3)[nH]c2c1 and test system EP4 (Homo sapiens, UniProt P35408), the measured IC50 is 1380 nM

Note to self: IC50 of CCOc1cc(-c2cc(NCCc3cc(F)c(Br)cc3C)ncn2)sc1-c1noc(=O)[nH]1 with EP4 (Homo sapiens, UniProt P35408) was 26 nM

====

Parameter IC50, tested on PTRGER4 (EP4) (Homo sapiens, UniProt P35408), listed per item.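 Note: assay plate preincubated 15 min at 37 °C, after which PGE2 was added at 20 nM final and incubation continued 120 min at 37 °C.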
Sequence (P35408 whole entry): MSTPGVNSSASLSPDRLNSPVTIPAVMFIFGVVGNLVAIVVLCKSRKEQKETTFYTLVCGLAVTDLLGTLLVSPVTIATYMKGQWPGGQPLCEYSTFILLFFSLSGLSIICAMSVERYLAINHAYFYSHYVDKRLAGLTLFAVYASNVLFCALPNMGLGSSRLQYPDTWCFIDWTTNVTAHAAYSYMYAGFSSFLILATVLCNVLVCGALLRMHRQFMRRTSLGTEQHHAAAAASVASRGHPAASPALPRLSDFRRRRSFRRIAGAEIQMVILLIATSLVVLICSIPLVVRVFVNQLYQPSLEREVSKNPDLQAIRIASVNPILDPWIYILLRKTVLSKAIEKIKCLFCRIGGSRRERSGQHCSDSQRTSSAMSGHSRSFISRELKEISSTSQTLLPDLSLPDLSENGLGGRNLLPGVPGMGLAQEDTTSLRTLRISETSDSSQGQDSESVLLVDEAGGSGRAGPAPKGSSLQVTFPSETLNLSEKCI
Write the value in nM as a bare number.

O=C(O)c1cccc2[nH]c(-c3cc(NCCc4c(F)cc(Br)cc4F)ncn3)cc12 : 148
CCc1nc(-c2cc(NCCc3c(F)cc(Br)cc3F)ncn2)sc1-c1noc(=O)[nH]1 : 3
CCCc1cc(-c2cc(NCCc3c(F)cc(Br)cc3F)ncn2)ccc1C(=O)NCC : 628
Cc1cc(-c2cc(NCCc3c(F)cc(Br)cc3F)ncn2)cc(F)c1CC(=O)O : 584

// sample CCOc1c(CC(=O)O)ccc(-c2cc(NCCc3c(F)cc(Br)cc3F)ncn2)c1F , its IC50 was 461

====

# test system: EP2 (Homo sapiens)
# Sequence (P43116 whole entry): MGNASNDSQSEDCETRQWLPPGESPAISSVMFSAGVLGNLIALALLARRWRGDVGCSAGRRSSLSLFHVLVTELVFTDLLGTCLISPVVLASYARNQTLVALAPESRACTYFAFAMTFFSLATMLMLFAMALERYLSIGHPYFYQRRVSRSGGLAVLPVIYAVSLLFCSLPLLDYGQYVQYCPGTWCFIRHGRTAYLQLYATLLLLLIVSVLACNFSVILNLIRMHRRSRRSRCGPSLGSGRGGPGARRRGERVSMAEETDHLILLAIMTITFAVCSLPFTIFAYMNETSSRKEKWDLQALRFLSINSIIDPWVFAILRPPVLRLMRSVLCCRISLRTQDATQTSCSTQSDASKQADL
pIC50: −log10 of the molar value.
Returns one of t or f; t when pIC50 is >= 7.

CCOc1cc(-c2cc(NCCc3ccc(Br)cc3)ncn2)sc1C(N)=O [Example 128] : f

Is pIC50 for O=c1[nH]c(-c2cccc(-c3cc(NCCc4ccc(Br)cc4)ncn3)c2)no1 [Example 147] at or above 7?
f

Given Oc1cc(-c2ccc(-c3cc(NCCc4c(F)cc(Br)cc4F)ncn3)cc2)on1 [Example 33] , state whether its pIC50 is at least 7.
f

Please check the record CCOc1cc(-c2cc(NCCc3ccc(Br)cc3)ncn2)sc1C(=O)O [Example 54] and state if its pIC50 is at or above 7.
t

Evaluate Cc1ccc(CCNc2cc(-c3ccc(C(=O)O)c(OC4CCC4)c3)ncn2)cc1C [Example 20] : pIC50 at minimum 7?
f

Hello, I need to know if CCOc1c(C(=O)O)sc(-c2cc(NCCc3c(F)cc(Br)cc3F)ncn2)c1Cl [Example 27] has measured pIC50 not below 7. Thanks!
t

Is the recorded value of pIC50 equal to or greater than 7 for this compound? CNc1cc(-c2cc(NCCc3c(F)cc(Br)cc3F)ncn2)ccc1C(=O)O [Example 231]
t

Is the recorded value of pIC50 equal to or greater than 7 for this compound? O=c1[nH]c(-c2ccc(-c3cc(NCCc4c(F)cc(Br)cc4F)ncn3)cn2)no1 [Example 289]
f

====

Observed pIC50 values for EP4 (Homo sapiens, UniProt P35408) are listed in what follows.
Value format note: pIC50 is -log10 of concentration (mol/L); just state the number.

# annotated cases, reported pIC50 shown
CCOc1cc(-c2cc(NCCc3ccc(Br)cc3F)ncn2)sc1-c1noc(=O)[nH]1 : 8.30
COc1cc(SC)ccc1CCNc1cc(-c2ccc(C(=O)O)c(SC)c2)ncn1 : 6.95
CCOc1cc(-c2cc(NCCc3cccc(C(=O)OC)c3)ncn2)sc1C(=O)O : 7.06
CCOc1cc(-c2cc(NCCc3ccc(Br)cc3)ncn2)sc1-c1noc(CO)n1 : 6.46
CCOc1cc(F)ccc1CCNc1cc(-c2cc(OCC)c(-c3noc(=O)[nH]3)s2)ncn1 : 6.78
CCOc1c(C(N)=O)sc(-c2cc(NCCc3c(F)cc(Br)cc3F)ncn2)c1Cl : 6.49
CCOc1cc(-c2cc(NCCc3ccc(Br)cc3)ncn2)sc1NC(N)=O : 6.72

# context switch: different compound, same pIC50
Query O=C(O)c1cccc2[nH]c(-c3cc(NCCc4c(F)cc(Br)cc4F)ncn3)cc12 on EP4 (Homo sapiens, UniProt P35408); pIC50 returned: 6.33

====

# test system: EP2 (Homo sapiens);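 note: SF295 glioblastoma cells with endogenous EP2 only, PGE2-stimulated cAMP accumulation read by HTRF competitive immunoassay, 45 min pre-incubation then 30 min at room temperature, IBMX in buffer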
pIC50: −log10 of the molar value.
Quick rule for you: pIC50 at 7 or higher means TRUE, lower means FALSE.

Sample answers from the record:
CCCCOc1cc(-c2cc(NCCc3c(F)cc(Br)cc3F)ncn2)cc(F)c1C(=O)O [Example 167] : FALSE
CCOc1cc(-c2cc(NCCc3ccc(Br)cc3Cl)ncn2)sc1-c1noc(=O)[nH]1 [Example 124] : TRUE
O=c1[nH]c(-c2ccc(-c3cc(NCCc4c(F)cc(Br)cc4F)ncn3)s2)no1 [Example 135] : TRUE
CCOc1cc(-c2cc(NCCc3ccc(N(C)C)cc3F)ncn2)sc1-c1noc(=O)[nH]1 [Example 161] : FALSE

With those in mind, consider the next compound.
Hi, just wondering whether CCOc1cc(-c2cc(NCCc3c(F)ccc(F)c3Cl)ncn2)sc1-c1noc(=O)[nH]1 [Example 100] shows pIC50 of 7 or higher.
TRUE

====

# test system: UniProt:P43116
Let's look at some compounds and their measured pIC50.
As a rule, pIC50 stands for the negative log10 of the concentration, concentration in M.

Look over these answered cases.
O=C(O)c1ccc(-c2cc(NCCc3c(F)cc(Br)cc3F)ncn2)cc1OC1CC1 : 7.34
CCOc1cc(-c2cc(NCCc3c(F)cc(Br)cc3F)ncn2)ccc1-c1cc(O)no1 : 7.35
CCOc1cc(-c2cc(NCCc3c(F)cccc3OC)ncn2)sc1C(=O)O : 6.90
CCOc1cc(-c2cc(NCCc3ccc(F)cc3C#N)ncn2)sc1-c1noc(=O)[nH]1 : 6.88
CCNc1cc(-c2cc(NCCc3c(F)cc(Br)cc3F)ncn2)ccc1C(N)=O : 7.70
CCOc1cc(-c2cc(NCCc3c(F)cc(Br)cc3F)ncn2)ccc1-c1noc(=O)[nH]1 : 7.11

Test item CCOc1cc(-c2cc(NCCc3cc(Br)ccc3SC)ncn2)sc1-c1noc(=O)[nH]1 ; UniProt:P43116; reported pIC50 was 6.90

The compound Cc1cc(-c2cc(NCCc3c(F)cc(Br)cc3F)ncn2)cc(F)c1CC(=O)O , tested on UniProt:P43116, showed pIC50 of 6.24

Entry CCOc1cc(-c2cc(NCCc3cc(C)c(C)cc3OC)ncn2)ccc1CC(=O)O , tested on UniProt:P43116, has a reported pIC50 of 6.31

GET /values?item= O=C(O)c1ccc(-c2cc(NCCc3c(F)cc(Br)cc3F)ncn2)s1 &system= UniProt:P43116 returns pIC50: 6.83

# CCOc1cc(-c2cc(NCCc3ccc(Br)c(Cl)c3)ncn2)sc1-c1noc(=O)[nH]1 with UniProt:P43116: pIC50 is 7.46

Record CCOc1cc(-c2cc(NCCc3c(F)cc(Br)cc3F)ncn2)ccc1Cc1noc(=S)[nH]1 / UniProt:P43116, pIC50 recorded as 6.93

Lab entry: UniProt:P43116 assay, compound CCOc1cc(-c2cc(NCCc3cc(Cl)ccc3Br)ncn2)sc1-c1noc(=O)[nH]1 , pIC50 = 7.10

The compound O=C(O)c1ccc2[nH]c(-c3cc(NCCc4c(F)cc(Br)cc4F)ncn3)cc2c1 on UniProt:P43116: pIC50 was 6.72

# lookup: CCOc1cc(-c2cc(NCCc3cc(F)c(C(F)F)cc3OC)ncn2)ccc1C(=O)O on UniProt:P43116, pIC50 = 6.16

I looked up CCOc1cc(-c2cc(NCCc3ccc(O)c(OC)c3)ncn2)sc1-c1noc(=O)[nH]1 and its pIC50 for UniProt:P43116 was 6.31

Reported pIC50 (UniProt:P43116) for entry CCOc1cc(-c2cc(NCCc3ccc(OC(F)F)cc3OC)ncn2)sc1C(=O)O is 7.43

====

Entries with their measured log10 of IC50, system UniProt:P35408:
In our notation, the value equals log10 of IC50 in µM.

Some molecules with known log10 of IC50 results, for comparison:
CCOc1cc(-c2cc(NCCc3cc(Cl)ccc3C#N)ncn2)sc1-c1noc(=O)[nH]1 : -0.87
CCOc1cc(-c2cc(NCCc3c(F)cc(Br)cc3F)ncn2)ccc1C(=O)NC : -0.52
CCOc1cc(-c2cc(NCCc3c(F)cc(Br)cc3F)ncn2)sc1-n1nn[nH]c1=O : -1.74
CCOc1cc(-c2cc(NCCc3cc(C)c(C)cc3OC)ncn2)ccc1C(=O)O : -0.12
CCOc1cc(-c2cc(NCCc3c(F)cc(Br)cc3F)ncn2)sc1CC(=O)O : -1.60
OCCOc1ccc(-c2cc(NCCc3c(F)cc(Br)cc3F)ncn2)cc1 : -0.11
CC(C)Oc1cc(-c2cc(NCCc3c(F)cc(Br)cc3F)ncn2)sc1-c1noc(=O)[nH]1 : -2.70

Item: COc1cc(-c2cc(NCCc3c(F)cc(Br)cc3F)ncn2)sc1C(=O)O | log10 of IC50: -1.12
